# Test system: human colon carcinoma (HT-29)
# run_description: MTT assay, in vitro cell viability, HT-29
# Type: cell-based
# condition_set: 48 h incubation, ± standard deviation, read-out: IC50 HT-29 48 h
Form field: pIC50 (one value per entry).
pIC50 here is simply -log10 of the concentration when that concentration is written in mol/L.

[
  {
    "compound": "c1ccc(C(=NN=C2CCCc3c2[nH]c2ccccc32)[O][Ni][O]C(=NN=C2CCCc3c2[nH]c2ccccc32)c2ccccc2)cc1 [complex 2, [Ni(L1)2]]",
    "val": 4.21
  },
  {
    "compound": "COc1ccc(C(=NN=C2CCCc3c2[nH]c2ccccc32)[O][Ni][O]C(=NN=C2CCCc3c2[nH]c2ccccc32)c2ccc(OC)cc2)cc1 [complex 4, [Ni(L3)2]]",
    "val": 4.38
  },
  {
    "compound": "Clc1ccc(C(=NN=C2CCCc3c2[nH]c2ccccc32)[O][Ni][O]C(=NN=C2CCCc3c2[nH]c2ccccc32)c2ccc(Cl)cc2)cc1 [complex 3, [Ni(L2)2]]",
    "val": 4.29
  }
]

Reported pIC50 for N.N.[Cl][Pt][Cl] [cisplatin, reference compound] was 4.85

* * *

# System: non-cancerous L929 (fibroblast) cell lines
# run_description: MTT assay, in vitro cell viability, L929
# Type: cell-based
# condition_set: 24 h incubation, ± standard deviation, read-out: IC50 L929 24 h
Form field: IC50 (one value per entry).
Express your answer in µM, writing the number without its unit.

# annotated cases, reported IC50 shown
[
  {
    "molecule": "COc1ccc(C(=NN=C2CCCc3c2[nH]c2ccccc32)[O][Ni][O]C(=NN=C2CCCc3c2[nH]c2ccccc32)c2ccc(OC)cc2)cc1 [complex 4, [Ni(L3)2]]",
    "val": 276
  },
  {
    "molecule": "c1ccc(C(=NN=C2CCCc3c2[nH]c2ccccc32)[O][Ni][O]C(=NN=C2CCCc3c2[nH]c2ccccc32)c2ccccc2)cc1 [complex 2, [Ni(L1)2]]",
    "val": 248
  }
]

Reported IC50 for N.N.[Cl][Pt][Cl] [cisplatin, reference compound] was 147

Reported IC50 for Clc1ccc(C(=NN=C2CCCc3c2[nH]c2ccccc32)[O][Ni][O]C(=NN=C2CCCc3c2[nH]c2ccccc32)c2ccc(Cl)cc2)cc1 [complex 3, [Ni(L2)2]] was 253

* * *

# System: non-cancerous L929 (fibroblast) cell lines
# run_description: MTT assay, in vitro cell viability, L929
# Type: cell-based
# condition_set: Mus musculus, L929, 48 h incubation, ± standard deviation, read-out: IC50 L929 48 h
property_label: IC50

Entry O=C(N/N=C1/CCCc2c1[nH]c1ccccc21)c1ccc(Cl)cc1 , non-cancerous L929 (fibroblast) cell lines data, IC50 value: > 100 µM

Entry O=C(N/N=C1/CCCc2c1[nH]c1ccccc21)c1ccccc1 , non-cancerous L929 (fibroblast) cell lines data, IC50 value: > 100 µM

Entry COc1ccc(C(=O)N/N=C2/CCCc3c2[nH]c2ccccc32)cc1 , non-cancerous L929 (fibroblast) cell lines data, IC50 value: > 100 µM
